Just for reference, ChEMBL document CHEMBL4417635 is where these values come from.

biological target: Transmembrane protease serine 4 (Homo sapiens) (UniProt Q9NRS4); experiment: Inhibition of TMPRSS4 serine protease domain (Val 205 to Leu 437 residues) (unknown origin) expressed in Escherichia coli BL21 (DE3) at 30 uM using […]-Gln-Ala-Arg-7-amido-4-methylcoumarin hydrochloride substrate and measured for 5 mins at 5 mins intervals by fluorescence based assay relative to control
Sequence (Q9NRS4 whole entry, the tested form may be a part): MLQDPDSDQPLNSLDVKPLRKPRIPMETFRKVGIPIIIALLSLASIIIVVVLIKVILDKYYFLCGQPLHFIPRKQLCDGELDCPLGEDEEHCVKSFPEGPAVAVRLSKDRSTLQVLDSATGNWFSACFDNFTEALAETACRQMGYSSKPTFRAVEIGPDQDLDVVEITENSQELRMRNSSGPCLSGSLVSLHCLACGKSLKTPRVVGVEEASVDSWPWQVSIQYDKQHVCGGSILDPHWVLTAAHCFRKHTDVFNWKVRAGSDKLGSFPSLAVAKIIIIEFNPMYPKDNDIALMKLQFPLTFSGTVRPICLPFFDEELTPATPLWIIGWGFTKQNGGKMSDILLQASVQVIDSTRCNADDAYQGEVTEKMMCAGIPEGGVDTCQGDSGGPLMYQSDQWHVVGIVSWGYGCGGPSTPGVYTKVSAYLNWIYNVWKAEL
The class of a record is decided solely by its measured inhibition; consult low-valued: < 20%; mid-valued: ≥ 20% and < 80%; high-valued: ≥ 80%

Cc1c(C(F)(F)F)cc(NC(=O)c2cc(Cl)ccc2O)cc1C(F)(F)F :: high-valued
O=C(Nc1nnc(C(F)(F)F)s1)c1cc(Cl)ccc1O :: mid-valued
O=C(Nc1cc(C(F)(F)F)cc(C(F)(F)F)c1)c1cc(Cl)cnc1O :: low-valued
Cc1ccc(O)c(C(=O)Nc2cc(C(F)(F)F)cc(C(F)(F)F)c2)c1 :: mid-valued
COc1cc(NC(=O)c2cc(Cl)ccc2O)cc(C(F)(F)F)c1 :: high-valued
O=C(Nc1cc(C(F)(F)F)cc(C(F)(F)F)c1)c1cc(Br)ccc1O :: high-valued

Req: Field: class (inhibition) — entry: N#Cc1ccc(NC(=O)c2cc(Cl)ccc2O)cc1C(F)(F)F
Resp: high-valued

Req: Lab log: O=C(Nc1ccc(Cl)nc1)c1cc(Cl)ccc1O — assign inhibition category
Resp: low-valued

Req: Sort N#Cc1ccc(O)c(C(=O)Nc2cc(C(F)(F)F)cc(C(F)(F)F)c2)c1 into one of the categories.
Resp: mid-valued

Req: Which class holds O=C(Nc1cc(C(F)(F)F)ccc1Cl)c1cc(Cl)ccc1O ?
Resp: high-valued

Req: Class (by measured inhibition) for O=C(Nc1cc(C(F)(F)F)ccc1C(F)(F)F)c1cc(Cl)ccc1O
Resp: mid-valued

Req: Pick a category. Item: O=C(Nc1ncc(C(F)(F)F)cc1Cl)c1cc(Cl)ccc1O
Resp: low-valued

* * *

target: UniProt Q9NRS4; test: Inhibition of TMPRSS4 serine protease domain (Val 205 to Leu 437 residues) (unknown origin) expressed in Escherichia coli BL21 (DE3) at 30 uM using […]-Gln-Ala-Arg-7-amido-4-methylcoumarin hydrochloride substrate and measured for 5 mins at 5 mins intervals by fluorescence based assay relative to control
test readout: inhibition (%)
API: value field is a number in %; no unit string.

// solved cases for inhibition follow
O=C(Nc1cc(C(F)(F)F)cc(C(F)(F)F)c1)c1cnc2ccccc2c1O :: 0
O=C(Nc1ccnc(Cl)c1)c1cc(Cl)ccc1O :: 35
COc1ccc(O)c(C(=O)Nc2cc(C(F)(F)F)cc(C(F)(F)F)c2)c1 :: 53
O=C(Nc1cc(C(F)(F)F)cc(C(F)(F)F)c1)c1ccc(C(F)(F)F)cc1O :: 79
O=C(Nc1cc(C(F)(F)F)cc(C(F)(F)F)c1Cl)c1cc(Cl)ccc1O :: 100
O=C(Nc1c(F)c(F)nc(F)c1F)c1cc(Cl)ccc1O :: 31
O=C(Nc1cc(C(F)(F)F)cc(C(F)(F)F)c1)c1cc([N+](=O)[O-])ccc1O :: 78
CC(=O)Nc1ccc(O)c(C(=O)Nc2cc(C(F)(F)F)cc(C(F)(F)F)c2)c1 :: 0

Req: Quick check: inhibition on UniProt Q9NRS4, item O=C(Nc1cnc2ccccc2c1)c1cc(Cl)ccc1O ?
Resp: 8

* * *

molecular target: UniProt:Q9NRS4; test: Inhibition of TMPRSS4 (unknown origin) expressed in human SW480 cells assessed as reduction in cell migration at 0.8 uM incubated for 48 hrs by crystal violet staining based assay relative to control
# key: entry, value: inhibition
Numbers only here, please. The scale is %.

Req: Given the entry O=C(Nc1cc(C(F)(F)F)cc(C(F)(F)F)c1)c1cc2ccccc2cc1O , report its measured inhibition.
Resp: 72

Req: # inhibition lookup, item O=C(Nc1ccc(C(F)(F)F)cc1[N+](=O)[O-])c1cc(Cl)ccc1O
Resp: 76

Req: For O=C(Nc1cc(C(F)(F)F)cc(C(F)(F)F)c1)c1cc(Cl)ccc1O , what is its reported inhibition?
Resp: 76

Req: GET /values?readout=inhibition&item= O=C(Nc1ccc(Cl)c(C(F)(F)F)c1)c1cc(Cl)ccc1O
Resp: 68

Req: Form field: reported inhibition of COc1cc(NC(=O)c2cc(Cl)ccc2O)cc(C(F)(F)F)c1
Resp: 49

* * *

target: Transmembrane protease serine 4 (Homo sapiens); test: Inhibition of TMPRSS4 serine protease domain (Val 205 to Leu 437 residues) (unknown origin) expressed in Escherichia coli BL21 (DE3) at 10 uM using […]-Gln-Ala-Arg-7-amido-4-methylcoumarin hydrochloride substrate and measured for 5 mins at 5 mins intervals by fluorescence based assay relative to control
Record criterion met whenever inhibition is at 30% or higher; record criterion not met when lower.

Record excerpt, results attached:
O=C(Nc1cc(C(F)(F)F)cc(C(F)(F)F)c1)c1ccc(C(F)(F)F)cc1O :: criterion met
O=C(Nc1cc(C(F)(F)F)cc(C(F)(F)F)c1)c1cccc(Cl)c1O :: criterion met
O=C(Nc1cc(C(F)(F)F)c(Br)c(C(F)(F)F)c1)c1cc(Cl)ccc1O :: criterion met
O=C(Nc1ccc(C(F)(F)F)cc1[N+](=O)[O-])c1cc(Cl)ccc1O :: criterion met
CC(=O)Nc1ccc(O)c(C(=O)Nc2cc(C(F)(F)F)cc(C(F)(F)F)c2)c1 :: criterion not met
O=C(Nc1cc(C(F)(F)F)ccc1C(F)(F)F)c1cc(Cl)ccc1O :: criterion met

Req: Quick check: does O=C(Nc1cc(C(F)(F)F)cc(C(F)(F)F)c1)c1ccccc1O have inhibition greater than or equal to 30%?
Resp: criterion not met

Req: State whether the measured inhibition reaches 30%, counting equality as reaching it, for O=C(NCc1cc(C(F)(F)F)cc(C(F)(F)F)c1)c1cc(Cl)ccc1O
Resp: criterion met

Req: Is inhibition at least 30%? Consider O=C(Nc1ccc(C(F)(F)F)cc1)c1cc(Cl)ccc1O
Resp: criterion not met

Req: Tell me whether inhibition is at least 30% here: O=C(Nc1cc(C(F)(F)F)ccc1Cl)c1cc(Cl)ccc1O
Resp: criterion met

Req: For this compound, is measured inhibition 30% or higher? O=C(Nc1cc(Br)cc(C(F)(F)F)c1)c1cc(Cl)ccc1O
Resp: criterion met

Req: Would you say CC(=O)Oc1ccc(Cl)cc1C(=O)Nc1cc(C(F)(F)F)cc(C(F)(F)F)c1 shows inhibition at minimum 30%?
Resp: criterion not met

Req: Textbook exercise: given the entry COc1c(C(F)(F)F)cc(NC(=O)c2cc(Cl)ccc2O)cc1C(F)(F)F , state whether its inhibition is greater than or equal to 30%.
Resp: criterion met

Req: Confirm if inhibition reported for the compound O=C(Nc1cc(C(F)(F)F)cc(C(F)(F)F)c1)c1cc(Cl)cnc1O is 30% or above.
Resp: criterion not met

Req: State whether the measured inhibition reaches 30%, counting equality as reaching it, for O=C(Nc1cccc(C(F)(F)F)c1C(F)(F)F)c1cc(Cl)ccc1O
Resp: criterion not met

Req: Given O=C(Nc1ccc(C(F)(F)F)c(C(F)(F)F)c1)c1cc(Cl)ccc1O , state whether its inhibition is at least 30%.
Resp: criterion met

Req: hey, is inhibition for this one >= 30%? O=C(Nc1ccc(F)c(C(F)(F)F)c1)c1cc(Cl)ccc1O
Resp: criterion met

Req: Exam item: decide whether the reported inhibition for N#Cc1cccc(NC(=O)c2cc(Cl)ccc2O)c1 is at least 30%.
Resp: criterion not met

Req: Has O=C(Nc1cc(Cl)cc(Cl)c1)c1cc(Cl)ccc1O a recorded inhibition greater than or equal to 30%?
Resp: criterion not met

Req: Tell me whether inhibition is at least 30% here: O=C(Nc1cc(C(F)(F)F)cc(C(F)(F)F)c1)c1cc(Cl)cc(Cl)c1O
Resp: criterion met

Req: Does the reported inhibition for O=C(Nc1cc(C(F)(F)F)cc(C(F)(F)F)c1)c1cc(F)ccc1O fall at or above the 30% mark?
Resp: criterion not met

Req: Is reported inhibition greater than or equal to 30% here: O=C(Nc1cc(C(F)(F)F)ccc1Br)c1cc(Cl)ccc1O
Resp: criterion met

Req: Check this compound for inhibition at or above 30%: O=C(Nc1cc(C(F)(F)F)cc(C(F)(F)F)c1)c1cnc2ccccc2c1O
Resp: criterion not met

Req: inhibition >= 30% for N#Cc1ccc(NC(=O)c2cc(Cl)ccc2O)nc1 ?
Resp: criterion not met

* * *

molecular target: Transmembrane protease serine 4 (Homo sapiens) (UniProt Q9NRS4); assay: Inhibition of TMPRSS4 serine protease domain (Val 205 to Leu 437 residues) (unknown origin) expressed in Escherichia coli BL21 (DE3) at 30 uM using […]-Gln-Ala-Arg-7-amido-4-methylcoumarin hydrochloride substrate and measured for 5 mins at 5 mins intervals by fluorescence based assay relative to control
// map inhibition to label using label 0: < 30%; label 1: ≥ 30% and < 80%; label 2: ≥ 80%

Illustrative cases are given below, each with its answer.
O=C(Nc1cc(C(F)(F)F)cc(C(F)(F)F)c1)c1cc(-c2ccc(F)cc2F)ccc1O :: label 1
O=C(Nc1nccs1)c1cc(Cl)ccc1O :: label 1
O=C(Nc1cc(C(F)(F)F)cc(C(F)(F)F)c1)c1cc(Cl)ccc1OCc1ccccc1 :: label 0
O=C(Nc1cccc(C(F)(F)F)c1)c1cc(Cl)ccc1O :: label 2
Cc1csc(NC(=O)c2cc(Cl)ccc2O)n1 :: label 0

As a next step, examine the compound that follows.
Req: Each compound maps to one class by inhibition. Which class for N#Cc1ccc(NC(=O)c2cc(Cl)ccc2O)nc1 ?
Resp: label 1
